Numbers sourced from patent US11999727B2.

# TESTED ON: PRMT5 (Homo sapiens, UniProt O14744)
# Construct: purchased Viva (custom protein)
# Sequence (O14744 whole entry): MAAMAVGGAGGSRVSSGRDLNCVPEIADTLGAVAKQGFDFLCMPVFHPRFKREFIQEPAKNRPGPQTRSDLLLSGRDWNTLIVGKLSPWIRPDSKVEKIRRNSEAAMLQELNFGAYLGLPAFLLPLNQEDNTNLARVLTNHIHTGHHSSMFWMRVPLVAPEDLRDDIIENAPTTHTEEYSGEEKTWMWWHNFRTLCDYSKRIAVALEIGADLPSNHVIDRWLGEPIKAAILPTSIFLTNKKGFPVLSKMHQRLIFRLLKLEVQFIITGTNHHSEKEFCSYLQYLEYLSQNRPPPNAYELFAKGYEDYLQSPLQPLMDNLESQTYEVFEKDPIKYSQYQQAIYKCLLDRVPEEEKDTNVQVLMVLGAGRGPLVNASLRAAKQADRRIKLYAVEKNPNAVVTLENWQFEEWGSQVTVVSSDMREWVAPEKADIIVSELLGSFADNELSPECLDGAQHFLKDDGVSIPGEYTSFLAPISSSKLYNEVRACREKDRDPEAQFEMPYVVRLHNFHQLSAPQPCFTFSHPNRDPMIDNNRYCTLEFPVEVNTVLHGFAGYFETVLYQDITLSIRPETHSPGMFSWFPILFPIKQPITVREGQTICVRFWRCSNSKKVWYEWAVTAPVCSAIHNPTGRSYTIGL
# Sequence (Q9BQA1 whole entry partner): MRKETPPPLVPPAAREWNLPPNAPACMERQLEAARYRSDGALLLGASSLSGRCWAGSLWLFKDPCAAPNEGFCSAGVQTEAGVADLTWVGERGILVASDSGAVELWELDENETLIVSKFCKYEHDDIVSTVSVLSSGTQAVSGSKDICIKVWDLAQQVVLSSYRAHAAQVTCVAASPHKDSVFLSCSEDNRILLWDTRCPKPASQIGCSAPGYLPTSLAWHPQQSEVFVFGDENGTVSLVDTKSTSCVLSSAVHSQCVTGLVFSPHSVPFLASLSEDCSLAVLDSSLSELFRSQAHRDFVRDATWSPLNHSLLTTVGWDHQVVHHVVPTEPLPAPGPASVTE
# ASSAY PROTOCOL: PRMT5 biochemical IC50 assay with MTA as cofactor
# MEASUREMENT PARAMETERS: PRMT5, MTA as cofactor; read-out: MTA IC50
EXPERIMENTAL READOUT: IC50

CNc1cccc([C@H]2CCCCN2C(=O)C(=O)Nc2cnc(N)c(C)c2)c1 (single isomer, unassigned) has a reported IC50 of < 0.05 µM

CCc1cc(NC(=O)C(=O)N2C[C@@H](C)CC[C@@H]2c2ccc(OCCN(C)C)c(Cl)c2)cnc1N (racemic) has a reported IC50 of < 0.05 µM

Cc1cc(NC(=O)C(=O)N2CC(C)(C)CCC2c2ccccc2)cnc1N (single isomer, unassigned) [Compound 52] has a reported IC50 of < 0.05 µM

Cc1cc(NC(=O)C(=O)N2C[C@@H](C)CC[C@@H]2c2cc(F)c3[nH]ncc3c2)cnc1N (single isomer, unassigned) has a reported IC50 of < 0.05 µM

COc1ncc(NC(=O)C(=O)N2C[C@H](C)CC[C@H]2c2cnc3[nH]ncc3c2)cc1C(N)=O (single isomer, unassigned) has a reported IC50 of < 0.05 µM

Cc1cc(NC(=O)C(=O)N2C[C@H](C)CC[C@H]2c2ccc(-c3ccn[nH]3)s2)cnc1N (racemic) has a reported IC50 of 0.05 to 0.5 µM

* * *

# TESTED ON: PRMT5 (Homo sapiens)
# Construct: purchased Viva (custom protein)
# ASSAY PROTOCOL: PRMT5 biochemical IC50 assay with no cofactor
# MEASUREMENT PARAMETERS: PRMT5, no cofactor; read-out: No Cofactor/rel IC50
EXPERIMENTAL READOUT: IC50

> print(dat)
                                   molecule     obs.value
1  Cc1cc(NC(=O)C(=O)N2C[C@H](C)CC[C@H]2c2ccc(NS(C)(=O)=O)cc2)cnc1N (single isomer, unassigned)       < 50 nM
2  Cc1cc(NC(=O)C(=O)N2C[C@@H](C)CC[C@@H]2c2ccc(S(C)(=O)=O)cc2)cnc1N (single isomer, unassigned)  50 to 500 nM
3  CCc1cc(NC(=O)C(=O)N2C[C@@H](C)CC[C@@H]2c2ccc3sc([C@H]4CCN(C)C(=O)C4)nc3c2)cnc1N (single isomer, unassigned)       < 50 nM

Lab note: molecule C[C@@H]1CC[C@@H](c2ccc(F)c(O)c2)N(C(=O)C(=O)Nc2cncc(C(N)=O)c2)C1 (racemic) tested on PRMT5 (Homo sapiens); recorded IC50 was 50 to 500 nM

Lab note: molecule C[C@H]1CC[C@H](c2ccc3sncc3c2)N(C(=O)C(=O)Nc2cnc(N)c(C3CC3)c2)C1 (single isomer, unassigned) tested on PRMT5 (Homo sapiens); recorded IC50 was < 50 nM

Lab note: molecule COc1ncc(NC(=O)C(=O)N2C[C@H](C)CC[C@@H]2C2CCCCC2)cc1C(N)=O (single isomer, unassigned) tested on PRMT5 (Homo sapiens); recorded IC50 was > 500 nM

Lab note: molecule Cc1c(NC(=O)C(=O)N2[C@@H](C)CCC[C@H]2c2ccccc2)cnc(N)c1C (single isomer, unassigned) tested on PRMT5 (Homo sapiens); recorded IC50 was 50 to 500 nM

Lab note: molecule Cc1cc([C@@H]2CC[C@@H](C)CN2C(=O)C(=O)Nc2cncc(C(N)=O)c2)ccc1F (single isomer, unassigned) tested on PRMT5 (Homo sapiens); recorded IC50 was > 500 nM

Lab note: molecule C[C@@H]1CC[C@@H](c2cn[nH]c2)N(C(=O)C(=O)Nc2cncc(C(N)=O)c2)C1 (single isomer, unassigned) tested on PRMT5 (Homo sapiens); recorded IC50 was > 500 nM
